# assayComment: Confirmation test of anti-obesity action in dietary-obese mice
# Assay type: in vivo
# testConditions: AKR/J mice on high-fat diet (60% kcal fat), 20 mg/kg orally every day for 4 weeks, vs control group
measureName: Rate of body weight reduction (%)
Express it in %; write the number only.

As a guide, the following entries are already answered.
[[record]]
smilesentry = "COc1cc(OCc2ccc(Br)cc2F)ccc1-c1c[nH]c(-c2cccs2)n1.Cl"
measurename = "Rate of body weight reduction (%)"
obsvalue = 13

[[record]]
smilesentry = "COc1cc(OCc2ccc(Br)cc2F)ccc1-c1c[nH]c(-c2ccc(F)cc2)n1.Cl"
measurename = "Rate of body weight reduction (%)"
obsvalue = 17

[[record]]
smilesentry = "COc1cc(OCc2ccc(C#N)cc2)ccc1-c1c[nH]c(-c2ccc(F)cc2)n1.Cl"
measurename = "Rate of body weight reduction (%)"
obsvalue = 11


Kindly review the next compound as well.
Item `COc1cc(-c2c[nH]c(-c3ccc(C(F)(F)F)cc3)n2)ccc1OCc1ccc(Cl)cc1` : provide Rate of body weight reduction (%)
11

====

# assayComment: Lipid-improving action in SD rats: blood biochemical examinations (triglyceride, HDL-cholesterol)
# Format: in vivo
# testConditions: Rattus norvegicus, po, 100 mg/kg orally every day for 5 days or 2 weeks, plasma 4 hours after final administration, vs control group, read-out: Rate of increase in HDL-cholesterol levels (%)
// values below are reported change in vivo at 100 mg/kg
Express it in %; write the number only.

As a guide, the following entries are already answered.
[[record]]
smilesentry = "COc1cc(-c2c[nH]c(-c3cccs3)n2)ccc1OCc1ccc(Br)cc1F"
obsvalue = 15

[[record]]
smilesentry = "COc1cc(-c2c[nH]c(-c3ccc(C(F)(F)F)cc3)n2)ccc1OCc1ccc(Cl)cc1"
obsvalue = 16

[[record]]
smilesentry = "COc1cc(-c2c[nH]c(-c3ccc(F)cc3)n2)ccc1OCc1ccc(Br)cc1F.Cl"
obsvalue = 36

[[record]]
smilesentry = "COc1cc(OCc2ccc(Cl)cc2)ccc1-c1c[nH]c(-c2ccc(C(F)(F)F)cc2)n1"
obsvalue = 99


Item `COc1cc(OCc2ccc(Cl)cc2)ccc1-c1c[nH]c(-c2ccsc2)n1.Cl` : provide change in vivo at 100 mg/kg
34

Item `COc1cc(OCc2ccc(C#N)cc2)ccc1-c1c[nH]c(-c2ccc(F)cc2)n1.Cl` : provide change in vivo at 100 mg/kg
27

Item `COc1cc(OCc2ccc(Br)cc2F)ccc1-c1c[nH]c(-c2ccc(C)cc2)n1` : provide change in vivo at 100 mg/kg
187

Item `COc1cc(OCc2ccc(Br)cc2F)ccc1-c1c[nH]c(-c2ccc(C(F)(F)F)cc2)n1` : provide change in vivo at 100 mg/kg
171

Item `COc1cc(OCc2ccc(C#N)cc2)ccc1-c1c[nH]c(-c2cccc(C(F)(F)F)c2)n1.Cl` : provide change in vivo at 100 mg/kg
64

Item `COc1cc(OCc2ccc(Br)cc2F)ccc1-c1c[nH]c(-c2ccc(F)cc2)n1.Cl` : provide change in vivo at 100 mg/kg
184

====

# targetDesc: LPL (lipoprotein lipase) (Mus musculus, UniProt P11152)
# Construct: endogenous in cells; host or cells: C2C12 cells, differentiated
# Sequence (P11152 28-474): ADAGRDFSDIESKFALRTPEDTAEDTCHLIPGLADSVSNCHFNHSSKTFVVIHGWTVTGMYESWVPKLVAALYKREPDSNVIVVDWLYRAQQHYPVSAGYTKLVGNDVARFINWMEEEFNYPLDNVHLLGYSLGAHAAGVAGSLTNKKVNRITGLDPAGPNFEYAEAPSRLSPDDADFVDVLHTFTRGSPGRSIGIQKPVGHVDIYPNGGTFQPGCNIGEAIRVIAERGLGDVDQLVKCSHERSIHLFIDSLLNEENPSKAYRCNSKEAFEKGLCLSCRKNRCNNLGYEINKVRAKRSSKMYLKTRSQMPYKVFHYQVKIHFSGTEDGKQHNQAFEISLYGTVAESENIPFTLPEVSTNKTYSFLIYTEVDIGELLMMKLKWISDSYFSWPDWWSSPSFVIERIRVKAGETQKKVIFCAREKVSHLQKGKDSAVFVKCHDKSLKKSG
# assayComment: Confirmation test of LPL activation effect in mouse skeletal muscle cells (C2C12 cells)
# Type: cell-based
# testConditions: amount of addition 30 μM, 8 hours exposure, vs control group
// values below are reported Rate of increase in LPL activity
Express it in %; write the number only.

As a guide, the following entries are already answered.
[[record]]
compound = "COc1cc(OCc2ccc(Cl)cc2)ccc1-c1c[nH]c(-c2ccccc2)n1.Cl [Example 10]"
obsvalue = 275

[[record]]
compound = "COc1cc(-c2c[nH]c(-c3cccc(F)c3)n2)ccc1OCc1ccccc1.Cl [Example 46]"
obsvalue = 88

[[record]]
compound = "COc1cc(OCc2ccc(Cl)cc2F)ccc1-c1c[nH]c(-c2ccc(C(F)(F)F)cc2)n1 [Example 132]"
obsvalue = 213

[[record]]
compound = "COc1cc(OCc2ccccc2)ccc1-c1c[nH]c(-c2cccc(C(F)(F)F)c2)n1 [Example 126]"
obsvalue = 297

[[record]]
compound = "COc1cc(OCc2ccc(C#N)cc2)ccc1-c1c[nH]c(-c2ccc(Cl)cc2)n1 [Example 76]"
obsvalue = 263

[[record]]
compound = "COc1cc(OCc2ccc(Cl)cc2F)ccc1-c1c[nH]c(-c2ccccc2)n1.Cl [Example 139]"
obsvalue = 128

[[record]]
compound = "COc1cc(-c2c[nH]c(-c3cccs3)n2)ccc1OCc1ccc(Br)cc1F [Example 67]"
obsvalue = 34


Kindly review the next compound as well.
Item COc1cc(OCc2ccc(Cl)cc2)ccc1-c1c[nH]c(-c2cc(Cl)cc(Cl)c2)n1.Cl [Example 118] : provide Rate of increase in LPL activity
102

====

// values below are reported Rate of increase in LPL activity
# targetDesc: LPL (lipoprotein lipase) (Mus musculus)
# Construct: endogenous in cells; host or cells: C2C12 cells, differentiated
# assayComment: Confirmation test of LPL activation effect in mouse skeletal muscle cells (C2C12 cells)
# Format: cell-based
# testConditions: amount of addition 10 μM, 8 hours exposure, vs control group
Express it in %; write the number only.

[[record]]
smilesentry = "COc1cc(-c2c[nH]c(-c3ccsc3)n2)ccc1OCc1ccccc1C#N.Cl"
obsvalue = 55

[[record]]
smilesentry = "COc1ccc(-c2nc(-c3ccc(OCc4ccc(C#N)cc4)cc3OC)c[nH]2)cc1.Cl"
obsvalue = 23

[[record]]
smilesentry = "COc1cc(OCc2ccc(Cl)cc2)ccc1-c1c[nH]c(-c2ccccc2)n1.Cl"
obsvalue = 46


Item `COc1ccc(-c2nc(-c3ccc(OCc4ccc(Br)cc4F)cc3OC)c[nH]2)cc1OC.Cl` : provide Rate of increase in LPL activity
36

Item `COc1cc(OCc2ccc(Br)cc2F)ccc1-c1c[nH]c(-c2cccs2)n1.Cl` : provide Rate of increase in LPL activity
40

Item `COc1cc(-c2c[nH]c(-c3ccsc3)n2)ccc1OCc1cccc(C#N)c1.Cl` : provide Rate of increase in LPL activity
70

Item `COc1cc(OCc2ccccc2)ccc1-c1c[nH]c(-c2ccsc2)n1` : provide Rate of increase in LPL activity
59

Item `COc1cc(-c2c[nH]c(-c3cccs3)n2)ccc1OCc1ccc(Cl)cc1` : provide Rate of increase in LPL activity
10

Item `COc1cc(OCc2ccccc2)ccc1-c1c[nH]c(-c2cc(F)cc(F)c2)n1.Cl` : provide Rate of increase in LPL activity
113

====

# targetDesc: LPL (lipoprotein lipase) (Mus musculus, UniProt P11152)
# Construct: endogenous in cells; host or cells: C2C12 cells, differentiated
# assayComment: Confirmation test of LPL activation effect in mouse skeletal muscle cells (C2C12 cells)
# Assay type: cell-based
# testConditions: amount of addition 10 μM, 8 hours exposure, vs control group
Classification field: satisfied = Rate of increase in LPL activity at or over 40%; not satisfied = Rate of increase in LPL activity under 40%.

[[record]]
compound = "COc1cc(-c2c[nH]c(-c3ccc(F)cc3)n2)ccc1OCc1ccc(C#N)cc1 [Example 56]"
category = "not satisfied"


Could you please find out whether COc1cc(-c2c[nH]c(-c3cccc(C(F)(F)F)c3)n2)ccc1OCc1ccc(Br)cc1F [Example 51] has Rate of increase in LPL activity that meets 40% or exceeds it?
not satisfied

Could you please find out whether COc1cc(OCc2ccc(Br)cc2F)ccc1-c1c[nH]c(-c2cccc(C(F)(F)F)c2)n1.Cl [Example 58] has Rate of increase in LPL activity that meets 40% or exceeds it?
satisfied

Could you please find out whether COc1cc(OCc2ccc(Br)cc2F)ccc1-c1c[nH]c(-c2cc(Cl)cc(Cl)c2)n1 [Example 91] has Rate of increase in LPL activity that meets 40% or exceeds it?
not satisfied

Could you please find out whether COc1cc(OCc2ccccc2)ccc1-c1c[nH]c(-c2cccc(C(F)(F)F)c2)n1 [Example 126] has Rate of increase in LPL activity that meets 40% or exceeds it?
satisfied

Could you please find out whether COc1cc(-c2c[nH]c(-c3ccc(Cl)cc3)n2)ccc1OCc1ccc(C#N)cc1 [Example 77] has Rate of increase in LPL activity that meets 40% or exceeds it?
satisfied

Could you please find out whether COc1ccc(-c2nc(-c3ccc(OCc4ccc(Cl)cc4)cc3OC)c[nH]2)cc1 [Example 104] has Rate of increase in LPL activity that meets 40% or exceeds it?
satisfied

Could you please find out whether COc1cc(OCc2ccccc2)ccc1-c1c[nH]c(-c2ccccc2)n1.Cl [Example 7] has Rate of increase in LPL activity that meets 40% or exceeds it?
satisfied

Could you please find out whether COc1cc(-c2c[nH]c(-c3ccc(C)c(F)c3)n2)ccc1OCc1ccccc1.Cl [Example 16] has Rate of increase in LPL activity that meets 40% or exceeds it?
satisfied

Could you please find out whether COc1cc(OCc2ccccc2)ccc1-c1c[nH]c(-c2ccc(C)cc2)n1 [Example 109] has Rate of increase in LPL activity that meets 40% or exceeds it?
not satisfied

Could you please find out whether COc1cc(OCc2ccc(C#N)cc2)ccc1-c1c[nH]c(-c2cccc(Cl)c2)n1 [Example 97] has Rate of increase in LPL activity that meets 40% or exceeds it?
not satisfied

Could you please find out whether COc1cc(OCc2ccc(Cl)cc2)ccc1-c1c[nH]c(-c2ccc(C(C)(C)C)cc2)n1 [Example 115] has Rate of increase in LPL activity that meets 40% or exceeds it?
satisfied

Could you please find out whether COc1cc(OCc2ccc(Br)cc2F)ccc1-c1c[nH]c(-c2ccc(Cl)c(Cl)c2)n1 [Example 102] has Rate of increase in LPL activity that meets 40% or exceeds it?
satisfied
